Each record here notes measured IC50.
- TEST SYSTEM: Des1 (h) (Homo sapiens, UniProt O15121)
- Construct: endogenous in cells; host or cells: parental Jurkat cells
- Sequence (O15121 whole entry): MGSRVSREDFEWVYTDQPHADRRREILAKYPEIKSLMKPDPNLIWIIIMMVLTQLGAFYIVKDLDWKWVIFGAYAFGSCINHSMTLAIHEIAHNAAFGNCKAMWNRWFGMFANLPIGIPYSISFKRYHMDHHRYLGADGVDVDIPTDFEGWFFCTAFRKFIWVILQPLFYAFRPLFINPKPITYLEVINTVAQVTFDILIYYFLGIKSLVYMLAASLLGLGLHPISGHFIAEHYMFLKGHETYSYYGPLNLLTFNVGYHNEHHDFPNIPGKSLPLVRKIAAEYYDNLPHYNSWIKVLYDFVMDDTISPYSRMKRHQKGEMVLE
- EXPERIMENT NOTES: Measurement of Dihydroceramide Desaturase-1 (Des-1) activity in intact Jurkat cells labeled with DhCer-C6-NBD (HPLC)
- Format: cell-based
- PROTOCOL CONDITIONS: intact Jurkat cells; given as concentration range, or <X / >X if measured at one concentration X only; read-out: Des1 (h) Jurkat IC50

COMPOUND: Oc1ccc(Nc2nnc(-c3ccc(OC(F)(F)F)cc3)o2)nc1
IC50: < 1000 nM
//
COMPOUND: CN(O)C(=O)c1ccc(Nc2ncn(-c3ccc(C(F)(F)F)cc3)n2)cn1
IC50: < 1000 nM
//
COMPOUND: N/C(=N\O)c1ccc(Nc2nc(-c3ccc(OC(F)(F)F)cc3)no2)cn1
IC50: < 1000 nM

Fill in the recorded IC50 for this compound, with Des1 (h) (Homo sapiens, UniProt O15121) as test system: Cc1nc(Nc2cnc(/C(N)=N/O)c(O)c2)oc1-c1ccc(C(F)(F)F)cc1
< 1000 nM

Fill in the recorded IC50 for this compound, with Des1 (h) (Homo sapiens, UniProt O15121) as test system: CN(O)C(=O)Nc1ccc(Nc2ncc(-c3ccc(C(F)(F)F)cc3)o2)cn1
10 to 100 nM

Fill in the recorded IC50 for this compound, with Des1 (h) (Homo sapiens, UniProt O15121) as test system: N/C(=N/O)c1ccc(Nc2ncc(-c3ccc(N4CC(F)(F)C4)cc3)o2)cn1
> 1000 nM

Fill in the recorded IC50 for this compound, with Des1 (h) (Homo sapiens, UniProt O15121) as test system: O=c1cc(Nc2ncc(-c3ccc(C(F)(F)F)cn3)o2)ccn1O
< 1000 nM

Fill in the recorded IC50 for this compound, with Des1 (h) (Homo sapiens, UniProt O15121) as test system: Cn1nc(Nc2ccc(/C(N)=N/O)nc2)cc1-c1ccc(C(F)(F)F)cn1
< 1000 nM

====

- TEST SYSTEM: Des1 (h) (Homo sapiens)
- Construct: endogenous in cells; host or cells: parental Jurkat cells
- EXPERIMENT NOTES: Measurement of Dihydroceramide Desaturase-1 (Des-1) activity in intact Jurkat cells labeled with DhCer-C6-NBD (HPLC)
- Format: cell-based
- PROTOCOL CONDITIONS: intact Jurkat cells; given as concentration range, or <X / >X if measured at one concentration X only; read-out: Des1 (h) Jurkat IC50
pIC50: −log10 of the molar value.
MEASURED PROPERTY: pIC50

Consider the following illustrative entries.
MOL: N/C(=N\O)c1ncc(Nc2ncc(-c3ccc(C(F)(F)F)cc3)o2)cc1O
MEASURED PROPERTY: pIC50
RESULT: 8.00 to 9.00
//
MOL: O=C(NO)c1ncc(Nc2nc(-c3ccc(Cl)cc3)cs2)cn1
MEASURED PROPERTY: pIC50
RESULT: < 5.00
//
MOL: CCN(O)C(=O)c1ccc(Nc2ncc(-c3ccc(C(F)(F)F)cc3)o2)cn1
MEASURED PROPERTY: pIC50
RESULT: > 6.00

Which pIC50 value belongs to O=C(NC[C@H](O)CO)c1ccc(Nc2ncc(-c3ccc(C(F)(F)F)cc3)o2)cn1 ?
< 6.00

Which pIC50 value belongs to N/C(=N/O)c1ccc(Nc2ncc(-c3ncc(C(F)(F)F)cn3)o2)cn1 ?
< 6.00

Which pIC50 value belongs to N/C(=N\O)c1ccc(Nc2ncc(-c3ccc(C(F)F)cc3)o2)cn1 ?
6.00 to 7.00

Which pIC50 value belongs to N/C(=N\O)c1cnc(Nc2nc(-c3ccc(Cl)cc3)no2)cn1 ?
> 6.00
